- Target Entity: human M2 receptor (Homo sapiens)
- Format: cell-based
- Details: shift in the acetylcholine dose-response curve (Allosteric EC50 shift, GraphPad PRISM); α >1 = positive cooperativity
Measurement Type: Cooperativity (alpha factor)
Enter a number only.

Item CC[C@@H](NC(=O)c1cn(-c2ccc(F)cc2F)c2nc(N3CCCC3)ccc2c1=O)C(F)(F)F with human M2 receptor (Homo sapiens) - Cooperativity (alpha factor)?
9

Look up Cooperativity (alpha factor) with human M2 receptor (Homo sapiens) for this compound: O=C(NC(c1c(F)cccc1F)C(F)(F)F)c1cn(-c2ccc(F)cc2F)c2nc(N3CC[C@H](F)C3)ccc2c1=O (single isomer, unassigned) [Example 242]
10

Form field - read-out: Cooperativity (alpha factor); system: human M2 receptor (Homo sapiens); submitted item: CC[C@@H](NC(=O)c1cn(-c2c(F)cc(F)cc2F)c2nc(N3C[C@@H](O)CC3=O)ccc2c1=O)C(F)(F)F
56

Write down the reported Cooperativity (alpha factor) of CC[C@@H](NC(=O)c1cn(-c2ccc(F)cc2F)c2nc(N3CCC4(C3)CC4(F)F)ccc2c1=O)C(F)(F)F (mixture of isomers) , test system: human M2 receptor (Homo sapiens).
4

Give human M2 receptor (Homo sapiens) Cooperativity (alpha factor) for CCC(COC(F)(F)F)NC(=O)c1cn(-c2ccc(F)cc2F)c2nc(N3C[C@@H](O)CC3=O)ccc2c1=O (stereo partly drawn)
28

Lab note: need Cooperativity (alpha factor) for CC[C@H](NC(=O)c1cn(-c2ccc(F)cc2F)c2nc(N3CCC(O)C3)ccc2c1=O)C(F)(F)F (single isomer, unassigned) [Example 219] on human M2 receptor (Homo sapiens), anyone have it?
33

====

- Target Entity: UniProtKB P08172
- Details: Receptor activity EC50, M2-GIRK1/4 activation test, acetylcholine at EC20; allosteric potency; in some cases mean values from two or more determinations
pEC50: −log10 of the molar value.
pEC50 below 7 gives false; pEC50 at or above it gives true.

Dear colleague, could you confirm whether CC(C)(CC(F)(F)F)NC(=O)c1cn(-c2c(F)cc(F)cc2Cl)c2nc(N3C[C@@H](O)[C@H](O)C3)ccc2c1=O [Example 391] has pEC50 at or above 7?
true

Confirm if pEC50 reported for the compound O=C(N[C@@H](C1CC1)C(F)(F)F)c1cn(-c2c(F)cc(F)cc2F)c2nc(N3CCCN(CCO)C3=O)ccc2c1=O is 7 or above.
true

Reported pEC50 reaches at least 7 for O=C(NC(c1c(F)cccc1F)C(F)(F)F)c1cn(-c2ccc(F)cc2F)c2nc(N3CCCC(O)C3=O)ccc2c1=O (single isomer, unassigned) [Example 249] ?
false

Kindly determine if pEC50 recorded for O=C(N[C@H](C1CC1)C(F)(F)F)c1cn(-c2c(F)cc(F)cc2F)c2nc(N3CCNC3=O)ccc2c1=O is above or exactly 7.
true

====

- Target Entity: human M2 receptor (Homo sapiens, UniProt P08172)
- Details: Receptor activity EC50, M2-GIRK1/4 activation test, acetylcholine at EC20; allosteric potency; in some cases mean values from two or more determinations
Measurement Type: EC50 (µM)
Report only the number, with the unit µM understood.

So what does the record say about EC50 for Cc1cccc(C)c1NC(=O)c1cn(-c2ccc(F)cc2F)c2nc(N(C)C)ccc2c1=O ?
0.085

I have this molecule here, O=C(NC12CC3CC(CC(C3)C1)C2)c1cn(-c2ccc(F)cc2F)c2nc(N3CCC(O)CC3=O)ccc2c1=O (stereo not shown) , and I need its recorded EC50.
0.088

Recorded EC50 for O=C(NC12CC3CC(CC(C3)C1)C2)c1cn(-c2ccc(F)cc2F)c2nc(N3CCS(=O)(=O)C3)ccc2c1=O , please?
0.113

# lookup: EC50 of CC(C)(NC(=O)c1cn(-c2c(F)cc(F)cc2F)c2nc(N3C[C@@H](O)[C@H](O)C3)ccc2c1=O)C1CC1
0.035

====

- Target Entity: human M2 receptor (Homo sapiens, UniProt P08172)
- Details: Receptor activity EC50, allosteric potency at EC20 acetylcholine; M2-GIRK1/4 reporter cells; in some cases mean of two or more determinations
Hi there, I'd appreciate the recorded EC50 for every entry that follows.
# number only, unit nM dropped from output

Give the measured EC50 of CCC(COC(F)(F)F)NC(=O)c1cn(-c2c(F)cc(F)cc2F)c2nc(N3C[C@@H](O)CC3=O)ccc2c1=O (single isomer, unassigned) [Example 411] .
21

Tell me the measured EC50 of CC[C@H](NC(=O)c1cn(-c2c(F)cc(F)cc2Cl)c2nc(N3C[C@@H](O)CC3=O)ccc2c1=O)C(F)(F)F (single isomer, unassigned) [Example 400] , please.
5

Find the recorded EC50 belonging to O=C(NC(C1CCC1)C(F)(F)F)c1cn(-c2c(F)cc(F)cc2F)c2nc(N3C[C@@H](O)CC3=O)ccc2c1=O (single isomer, unassigned) [Example 506] and report it.
7

====

So I've got a bunch of compounds here, and I need their Emax values.
- Target Entity: human M2 receptor (Homo sapiens)
- Details: read-out: Efficiency, boosting of the acetylcholine effect at EC20 acetylcholine concentration; M2-GIRK1/4 reporter cells
# number only, unit % dropped from output

Which Emax value belongs to CC(C)(NC(=O)c1cn(-c2c(F)cc(F)cc2F)c2nc(N3CC[C@@H](O)C3=O)ccc2c1=O)C(F)(F)F ?
96

// Emax lookup, key: O=C(N[C@@H](C1CC1)C(F)(F)F)c1cn(-c2c(F)cc(F)cc2F)c2nc(N3CCC(F)(CO)CC3)ccc2c1=O
89

Requested field: Emax. Item: O=C(N[C@@H](C1CC1)C(F)(F)F)c1cn(-c2c(F)cc(F)cc2F)c2nc(N3CC(O)C3)ccc2c1=O
100

Recorded Emax for O=C(NC(CC(F)(F)F)C(F)(F)F)c1cn(-c2c(F)cc(F)cc2F)c2nc(N3CCNC3=O)ccc2c1=O (racemic) , please?
100

Emax for O=C(NC(CC(F)(F)F)C(F)(F)F)c1cn(-c2c(F)cc(F)cc2F)c2nc(N3C[C@@H](O)CC3=O)ccc2c1=O (mixture of isomers) [Example 606] ?
98

Reported Emax, compound CC[C@H](NC(=O)c1cn(-c2c(F)cc(F)cc2F)c2nc(N3CC(O)C4(CC4)C3)ccc2c1=O)C(F)(F)F (mixture of isomers) [Example 619] : ____
88.6

====

- Target Entity: UniProt P08172
- Sequence (P08172 1-466): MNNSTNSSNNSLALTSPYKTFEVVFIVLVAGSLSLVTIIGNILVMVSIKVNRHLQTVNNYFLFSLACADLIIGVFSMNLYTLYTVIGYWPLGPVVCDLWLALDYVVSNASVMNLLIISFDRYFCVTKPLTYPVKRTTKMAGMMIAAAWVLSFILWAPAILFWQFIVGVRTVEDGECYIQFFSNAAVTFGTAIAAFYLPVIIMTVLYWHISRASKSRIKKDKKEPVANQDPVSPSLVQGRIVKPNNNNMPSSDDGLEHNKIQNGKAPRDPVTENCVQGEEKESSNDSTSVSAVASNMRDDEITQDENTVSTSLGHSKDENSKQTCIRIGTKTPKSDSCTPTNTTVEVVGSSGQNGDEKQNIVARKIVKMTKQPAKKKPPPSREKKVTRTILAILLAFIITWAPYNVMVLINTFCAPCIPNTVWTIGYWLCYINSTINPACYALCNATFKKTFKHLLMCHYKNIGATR
- Details: Receptor activity EC50, allosteric potency at EC20 acetylcholine; M2-GIRK1/4 reporter cells; in some cases mean of two or more determinations
Could you please report measured EC50 for the items listed next?
Value expressed in nM; do not type the unit.

EC50 lookup needed for O=C(N[C@@H](C1CC1)C(F)(F)F)c1cn(-c2c(F)cc(F)cc2F)c2nc(N3C[C@@H](O)CC3=O)ccc2c1=O , thanks.
7

Which EC50 is listed for O=C(NC(CC(F)(F)F)C1CC1)c1cn(-c2c(F)cc(F)cc2F)c2nc(N3C[C@@H](O)[C@H](O)C3)ccc2c1=O (mixture of isomers) [Example 438] ?
37

Returns the measured EC50 for the input compound. Input: O=C(Nc1c(Cl)cccc1Cl)c1cn(-c2ccc(F)cc2F)c2nc(N3C[C@@H](O)[C@H](O)C3)ccc2c1=O
49

Name the reported EC50 value associated with the compound CC[C@H](NC(=O)c1cn(-c2c(F)cccc2F)c2nc(N3CCNC3=O)ccc2c1=O)C(F)(F)F
60

====

- Target Entity: human M2 receptor (Homo sapiens, UniProt P08172)
- Details: Receptor activity EC50, M2-GIRK1/4 activation test, acetylcholine at EC20; allosteric potency; in some cases mean values from two or more determinations
Give EC50 for every item shown.
Expressed in nM, but write only the number.

Looking for the measured EC50 of CC[C@@H](NC(=O)c1cn(-c2ccc(F)cc2F)c2nc(N3CCCN(CC)C3=O)ccc2c1=O)C(F)(F)F , can you help?
54

// lookup EC50 for CC[C@@H](NC(=O)c1cn(-c2ccc(F)cc2F)c2nc(N3CCC(C)(O)C3=O)ccc2c1=O)C(F)(F)F (single isomer, unassigned) [Example 196]
137

Any idea what EC50 was measured for CC[C@H](NC(=O)c1cn(-c2ccc(F)cc2F)c2nc(N3CCC(O)C3)ccc2c1=O)C(F)(F)F (single isomer, unassigned) [Example 220] ?
116

Entry O=C(NC(c1c(F)cccc1F)C(F)(F)F)c1cn(-c2ccc(F)cc2F)c2nc(N3CCC(O)CC3=O)ccc2c1=O (single isomer, unassigned) [Example 254] has what EC50?
337

Requested field: EC50. Item: Cc1ccccc1C(NC(=O)c1cn(-c2ccc(F)cc2F)c2nc(N(C)C)ccc2c1=O)C(F)(F)F (racemic)
110

What value of EC50 has been reported for the following compound? O=C(NC12CC3CC(CC(C3)C1)C2)c1cn(-c2ccc(F)cc2F)c2nc(N3CCOC3=O)ccc2c1=O
57
